# melting point annotations
Measurement Type: melting point

O=C(O)c1cc2c(Cl)c(Cl)ccc2[nH]1 = 281 to 283 °C
CCCOc1ccc2[nH]cc(C=O)c2c1 = 139 to 141 °C
COc1ccc(C2CCCCC2=O)cc1F (configuration not stated) = 78 to 80 °C
Cc1c(C(=O)O)cc(Cl)cc1S(=O)(=O)Cl = 109 to 111 °C
N#Cc1ccc(-c2nc(CCl)co2)cc1 = 132 to 134 °C
O=C(O)c1ccc2[nH]c(=O)[nH]c2c1 = 373 to 375 °C
CC1(C)CCC(C)(C)c2cc(C(=O)O)ccc21 = 199 to 201 °C

---

Measurement Type: melting point

Cn1nnnc1-c1cccc(NC(=O)OCC(F)(F)F)c1 = 128 to 130 °C
O=C(O)c1ccc(Oc2cccc(Br)c2)cc1 = 151 to 153 °C
Cc1nc(Cl)c(NN)nc1C = 134 to 136 °C
O=C(O)Cc1cc(Cl)c2c(c1)OCCCO2 = 166 to 168 °C
NC(=O)NCc1cccc(F)c1 = 134 to 136 °C
Cc1nn(C)c(Cl)c1CC(=O)O = 169 to 171 °C
Cc1nn(Cc2cccc(Cl)c2)cc1C(=O)O = 167 to 169 °C
Nc1nnc(-c2ccc(Cl)cc2)o1 = 260 to 262 °C
CCOc1ccc(-c2nc(CCl)co2)cc1 = 102 to 104 °C
CC(Cl)c1nnc(-c2ccccc2)o1 (stereo not drawn) = < 17 °C
O=S(=O)(Cl)c1ccc(OCC(F)F)c2ccccc12 = 115 to 117 °C
CCc1ccccc1N1CC(C(=O)O)CC1=O (stereo not drawn) = 99 to 101 °C
CC1C(=O)NC(=O)N1c1ccccc1 (stereo not drawn) = 147 to 149 °C
COC(=O)c1cc(F)cc(I)c1N = 52 to 54 °C
Nc1ccccc1Cc1ccccc1 = 55 to 57 °C
CCC(CC)c1nnc(N)s1 = 158 to 160 °C
CS(=O)(=O)c1cc(Cl)c(C(=O)O)c(Cl)c1 = 144 to 146 °C
O=c1[nH]c2cc(Br)cc(Cl)c2o1 = 189 to 191 °C
Nc1nnc(C(F)(F)F)[nH]1 = 155 to 157 °C
CC(=O)c1cnn(Cc2ccccc2)c1 = 61 to 63 °C
COC(=O)c1cc(F)cc(Br)c1N = 36 to 38 °C
Cc1nnc(S)o1 = 239 to 241 °C
Nc1cc(N2CCCS2(=O)=O)ccc1Cl = 139 to 141 °C
Nc1ccn(-c2nccs2)n1 = 99 to 101 °C
O=C(O)CNS(=O)(=O)c1ccc(F)c(F)c1F = 175 to 177 °C
NC(=O)C1CCCCS1 (stereo not drawn) = 164 to 166 °C
CCCn1c(=O)[nH]c(=O)c2c(C(=O)O)cc(-c3ccccc3)nc21 = 230 to 232 °C
Nc1ccc(N2CCOCC2)c(S(=O)(=O)Nc2ccc(Cl)cc2)c1 = 236 to 238 °C

---

# melting point annotations
Measurement Type: melting point

O=C(O)CCC(=O)c1ccc(F)cc1F = 113 to 115 °C
CCC(CC)n1ccc(C(=O)O)n1 = 68 to 70 °C
O=C(O)c1cc(S(=O)(=O)Cl)c(Br)cc1Br = 185 to 187 °C
COC(=O)c1cc(OC)c(S(=O)(=O)O)s1 = 109 to 111 °C
CCc1noc(-c2ccc(N)c(Cl)c2)n1 = 89 to 91 °C
CCn1ncc2ccc(N)cc21 = 117 to 119 °C
CCC(C(=O)O)N1CCCC1=O (centres undefined) = 156 to 158 °C
N#CCC(=O)Cc1ccc(Cl)cc1 = 85 to 87 °C
Cc1nc(-c2ccc(Cl)cc2)sc1C(C)N (centres undefined) = 42 to 44 °C
CC(C)n1ncc2cc(C=O)c(Cl)nc21 = 78 to 80 °C
NNC(=O)c1cc([N+](=O)[O-])c[nH]1 = 280 to 282 °C
CCn1c(S)nnc1-c1ccc(OC)cc1 = 178 to 180 °C
O=Cc1ccc(-c2cc(Cl)ccc2Cl)o1 = 84 to 86 °C
CCc1ocnc1C(=O)O = 104 to 106 °C

---

# melting point annotations
Measurement Type: melting point

O=C(O)c1cc2ccccc2cc1I = 215 to 217 °C
Cc1ccc(OCC(=O)O)c(Br)c1 = 130 to 132 °C
Nc1nnc(Cc2ccc(F)cc2)o1 = 169 to 171 °C
COCCc1nnc(S)n1N = 118 to 120 °C
ClCc1nc(-c2cccc(Br)c2)no1 = 47 to 49 °C
[N-]=[N+]=NCC(=O)NCc1ccccc1 = 39 to 41 °C
O=[N+]([O-])c1cc2c(cc1S(=O)(=O)Cl)OCCCO2 = 125 to 127 °C
C#CCNC(=O)Nc1cc(C)on1 = 163 to 165 °C
CC12CCC(CC1=NNC(=O)CCl)C2(C)C (stereo not drawn) = 185 to 187 °C
O=C(O)Cn1cccc(C(F)(F)F)c1=O = 199 to 201 °C
Cc1ccc(-c2cc(C(=O)NN)c3ccccc3n2)cc1 = 85 to 90 °C
CC(=O)Nc1ccc(N2C(=O)c3ccc(C(=O)O)cc3C2=O)cc1 = 379 to 381 °C
CCOc1cc(C(=O)N(C)C)ccc1N = 107 to 109 °C

---

# melting point annotations
Measurement Type: melting point

Cc1ccccc1C(=O)NC1CCNCC1 = 129 to 131 °C
CC(C)CC(=O)Nc1ccc(Cl)c(C(=O)O)c1 = 174 to 176 °C
COCCNS(=O)(=O)c1ccc(N)cc1 = 83 to 85 °C
NC(=O)CN1CCC(O)CC1 = 114 to 116 °C
COC(=O)c1ccc2nc(N)oc2c1 = 228 to 230 °C
O=C(c1cccnc1)c1cccc(Cl)c1 = 47 to 49 °C
O=C(O)C(Oc1ccccc1Br)c1ccccc1 (stereo not drawn) = 143 to 145 °C
COc1ccc(OC)c(NC(=O)CCl)c1 = 169 to 171 °C
CCCCCC(=O)Nc1cc(OC)c(OC)cc1C(=O)O = 178 to 180 °C
C/C(=N\O)c1cccc(NC(=O)c2ccc(F)cc2)c1 = 196 to 198 °C
O=C1Nc2c(cccc2C(F)(F)F)C1=O = 187 to 189 °C
O=C1CCC(C(F)(F)F)=NN1 = 75 to 77 °C
O=C1c2ccccc2C(=O)N1c1cnn(Cc2ccccc2)c1 = 149 to 151 °C

---

# melting point annotations
Measurement Type: melting point

O=c1[nH]c(-c2ccc(Cl)cc2)co1 = 241 to 243 °C
O=C(O)CCOc1ccc(Cl)cc1Cl = 93 to 95 °C
CC(C)c1ccc(C(=O)N2CCNCC2)cc1 = 129 to 131 °C
NC(=O)C1Cc2cc(S(N)(=O)=O)ccc2O1 (configuration not stated) = 223 to 225 °C
O=C(O)CNS(=O)(=O)c1ccc2c(c1)OCCCO2 = 75 to 77 °C
CCC(=O)c1ccc(C(=O)O)cc1 = 178 to 180 °C
N#Cc1ccc(Cl)cc1[N+](=O)[O-] = 95 to 100 °C

---

Measurement Type: melting point

CCCN1C(=O)CNc2ccccc21 = 70 to 72 °C
CCc1nnc(-c2cccc(N)c2)o1 = 88 to 90 °C
CN1CCCNc2nc3ccccc3nc21 = 146 to 148 °C
CCN1CCN(c2ccc(Cl)cc2N)CC1 = 110 to 112 °C
CCOC(=O)c1cn[nH]c1S(N)(=O)=O = 171 to 173 °C
Nc1ccc2[nH]c(-c3ccco3)nc2c1 = 230 to 232 °C
NC(=O)C1CCC(C(=O)O)CC1 (centres undefined) = 205 to 207 °C
O=C(O)C1CCN(C(=O)c2cccnc2)CC1 = 188 to 190 °C
Cc1ccc(-n2nc(C(=O)O)ccc2=O)cc1Cl = 240 to 242 °C
Nc1nc2cc3c(cc2s1)OCCCO3 = 218 to 220 °C
CN1C(=O)CNC1=O = 177 to 179 °C
Nc1ccnc2ncnn12 = 264 to 266 °C
O=C1CCN(C(=O)c2ccccc2Cl)CC1 = 107 to 109 °C
Cc1nn(C)c(C)c1-c1cc(C(=O)O)[nH]n1 = 281 to 283 °C

---

Measurement Type: melting point

COc1cccc(C(=O)c2c(N)sc3c2CCC3)c1 = 127 to 129 °C
CN1CC(=O)N(c2cccc(N)c2)C1=O = 131 to 133 °C
CCOC(C)c1ncc(C(=O)O)s1 (stereo not given) = 112 to 114 °C
CC(C)(C)OC(=O)Nc1ccccc1N = 105 to 107 °C
O=C(O)c1oc2ccccc2c1CSc1ccc(Cl)cc1 = 158 to 160 °C
CCOC(=O)c1c(C)n(C2CCCCC2)c2ccc(O)cc12 = 247 to 249 °C
O=C(O)C1CCN(c2ccc(S(=O)(=O)N3CCCCC3)cc2[N+](=O)[O-])CC1 = 241 to 243 °C
CC(C)(C)NS(=O)(=O)c1cccc(C(=O)O)c1 = 145 to 147 °C
CC1=NN(Cc2ccc(Cl)cc2Cl)C(=O)C1 = 128 to 130 °C
Cc1cc(C)c(Nc2nnc(S)s2)c(Cl)c1 = 198 to 200 °C
Cc1cc(C)n(-c2ccc(C(=O)O)cn2)n1 = 241 to 243 °C
N#CCCSc1ccc(C(F)(F)F)cc1N = 58 to 60 °C
O=C1CC(c2ccccc2)=NN1c1ccccc1Br = 183 to 185 °C
O=C1CNc2cccc(F)c2N1 = 161 to 163 °C
N#CNC1=NCCCCC1 = 79 to 81 °C
CN(CC(=O)O)S(=O)(=O)c1cccs1 = 152 to 156 °C
CCOCc1ccc(CNC(=O)CCl)cc1 = 86 to 88 °C
O=S(=O)(Cl)c1cnc(Cl)c(Cl)c1 = 46 to 48 °C
CC(C)(C)c1ccc(-c2nnc(S)n2N)cc1 = 105 to 106 °C
O=C(O)c1cccc2c1C(=O)c1ccccc1C2=O = 293 to 295 °C
CCOC(=O)c1ccc(C(C)=O)cc1 = 55 to 57 °C
CC(NC(=O)CCl)C1CC1 (stereo not given) = 50 to 52 °C
Clc1nc(-c2ccccn2)nc2c1CCC2 = 142 to 144 °C
COc1ccc2c(c1)OCC2=O = 119 to 121 °C
Cc1cc(C)c2cc(C(=O)O)[nH]c2c1 = 168 to 170 °C
CS(=O)(=O)OC1CCOC2(CCOCC2)C1 (stereo not given) = 110 to 112 °C
CC(C)(C)OC(=O)NCC1CCCCS1(=O)=O (stereo not given) = 97 to 99 °C
N#CC1(N)CCSC1 (stereo not given) = 54 to 56 °C
Nc1c(C(=O)O)cc(F)cc1[N+](=O)[O-] = 219 to 221 °C
Cc1csc(-c2cnc(C)[nH]c2=O)n1 = 302 to 304 °C
Nc1ccccc1NC12CC3CC(CC(C3)C1)C2 = 92 to 94 °C
COc1ccccc1CCNC(=O)CCl = 78 to 80 °C
Sc1nnnn1C1CCOCC1 = 154 to 156 °C
Cc1ccccc1-c1nnc(N)[nH]1 = 219 to 221 °C
Nc1ccc(-c2cccc(C(F)(F)F)c2)cc1 = 65 to 67 °C
CC(NC(=O)c1ccc(Cl)cc1)C(=O)O (stereo not given) = 158 to 160 °C
O=C(O)C1CC1c1cccc(C(F)(F)F)c1 (stereo not given) = 84 to 86 °C
O=C1CCC(=O)N1CC1CO1 (stereo not given) = 61 to 63 °C
Cc1ncsc1C(=O)NC1CCNCC1 = 136 to 138 °C
COC(=O)C(=O)CC(=O)c1ccc(Cl)s1 = 103 to 105 °C
Cc1c(C)n(-c2ccc(Cl)cc2)c2ncnc(N)c12 = 249 to 251 °C
CCOc1cc2c(cc1/C=C/C(=O)O)OC(C)C2 (stereo not given) = 169 to 171 °C
O=Cc1cnc(N2CCOCC2)nc1 = 147 to 149 °C
COc1ccc(Br)cc1C1NC(=O)NC1=O (stereo not given) = 209 to 211 °C
Sc1nnc(-c2ccccc2)n1Cc1ccc2c(c1)OCO2 = 118 to 120 °C
Cc1ccc(C2CC2C(=O)O)cc1C (stereo not given) = 97 to 99 °C
Nc1ncn(-c2ccccc2)n1 = 146 to 148 °C
Cc1ccc(N)cc1S(=O)(=O)N1CCCCC1 = 105 to 107 °C
NCc1nc2ccccc2s1 = 199 to 201 °C
O=c1c2sccc2ncn1CCO = 179 to 181 °C
O=Cc1cc(Cl)c2c(c1)OCCCO2 = 78 to 82 °C
Cn1c(CCl)nc2c1c(=O)[nH]c(=O)n2C = 269 to 271 °C
Cc1ccc(-c2cc(N)on2)cc1 = 148 to 150 °C
O=S(=O)(O)c1nc2ccc(Cl)cc2[nH]1 = 329 to 331 °C
COc1cc(C=O)ccc1OCC(=O)c1ccc(Cl)c(Cl)c1 = 137 to 139 °C
